# IC50 per entry
ASSAY_TARGET: Pim1 kinase (Homo sapiens, UniProt P11309)
Sequence (P11309 whole entry): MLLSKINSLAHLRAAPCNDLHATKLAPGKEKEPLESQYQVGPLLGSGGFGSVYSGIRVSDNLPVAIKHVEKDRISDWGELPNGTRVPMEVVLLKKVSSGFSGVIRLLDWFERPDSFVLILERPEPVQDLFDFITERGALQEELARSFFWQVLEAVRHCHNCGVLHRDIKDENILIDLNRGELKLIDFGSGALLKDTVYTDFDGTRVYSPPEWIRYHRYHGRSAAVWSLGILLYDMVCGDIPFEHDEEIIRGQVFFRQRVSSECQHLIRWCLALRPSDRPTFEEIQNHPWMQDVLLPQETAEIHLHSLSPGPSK
ASSAY_NOTES: Pim1 ATP depletion assay;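 note: Luciferase-luciferin luminescence readout of residual ATP after PIM1 transfers phosphate to a peptide substrate, 40 µM ATP added, reaction run to roughly half ATP consumption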
Format: biochemical
CONDITIONS: Pim1 ATP depletion assay; read-out: IC50 (μM) PIM1

>>> df
                                   molecule  observed_value
0  CC(C)NC(=O)c1ccc(F)c(-c2cccc(C(=O)Nc3cnccc3N3CCC[C@H](N)C3)n2)c1          < 1 µM
1  Nc1cc(-c2ccncc2NC(=O)c2nc(-c3c(F)cccc3F)ccc2N)nc(C(F)(F)F)n1          < 1 µM
2  Nc1ncc(-c2ccccc2)nc1C(=O)Nc1cnccc1N1CCNCC1          < 1 µM

Req: Which IC50 value belongs to `Cc1ccc(S(=O)(=O)N2CCCC2)cc1-c1ccc(N)c(C(=O)Nc2cnccc2N2CCC[C@H](N)C2)n1` ?
Resp: < 1 µM

Req: Using the record for `Nc1ccc(-c2cnc(N)c(OCC(F)(F)F)n2)nc1C(=O)Nc1cnccc1N1CCC[C@H](N)C1` , report its IC50.
Resp: < 1 µM

Req: Would you kindly share the measured IC50 for `COCCOc1nc(-c2ccc(N)c(C(=O)Nc3cnccc3N3CCC[C@H](N)C3)n2)cnc1N` ?
Resp: < 1 µM

Req: So what's the measured IC50 for this one? Nc1nccnc1C(=O)Nc1[nH]c(=O)ncc1N1CCCC(C(F)(F)F)C1 (stereo not shown)
Resp: < 1 µM

Req: So what's the measured IC50 for this one? `N#Cc1ccccc1-c1ccc(N)c(C(=O)Nc2cnccc2N2CCC[C@H](N)C2)n1`
Resp: < 1 µM

Req: Can you share its IC50? I mean this molecule: `Nc1ccc(-c2c(F)cccc2F)nc1C(=O)Nc1cnccc1N1CCCCCCC1`
Resp: < 1 µM

Req: Name the reported IC50 value associated with the molecule `Nc1ccc(-c2c(F)cccc2F)nc1C(=O)Nc1cnccc1N1CCCCCC1`
Resp: < 1 µM

Req: Looking for the measured IC50 of `CC(C)c1cccc(-c2ccc(N)c(C(=O)Nc3cnccc3N3CCC[C@H](N)C3)n2)c1` , can you help?
Resp: < 1 µM

Req: Name the recorded IC50 for `Nc1ncc(Br)nc1C(=O)Nc1[nH]c(=O)ncc1N1CCC(C(F)(F)F)CC1` .
Resp: < 1 µM

Req: Field request: IC50 | item: `Nc1ccc(-c2cc(C(=O)Nc3ccccc3)ccc2F)nc1C(=O)Nc1cnccc1N1CCC[C@H](N)C1`
Resp: < 1 µM
